The origin of these recorded values is the supplement of paper PMC10307832.

I'd appreciate it if you could supply relative viability values for the items below.
# Tested on: NCI-H1563
# PROCEDURE SUMMARY: relative viability (nuclei count vs DMSO), 5 days (fraction); higher = more cells survive
# PROTOCOL CONDITIONS: first compound 8 µM

Known relative viability results, listed for orientation:
• CCCCCCCCCCCC1=C(O)C(=O)C=C(O)C1=O [Embelin] + COc1cc2c(Oc3ccc(NC(=O)C4(C(=O)Nc5ccc(F)cc5)CC4)cc3F)ccnc2cc1OCCCN1CCOCC1 [Foretinib] (partner 0.25 µM) = 0.896
• CCCCCCCCCCCC1=C(O)C(=O)C=C(O)C1=O [Embelin] + Nc1nc2[nH]cc(CCc3ccc(C(=O)N[C@@H](CCC(=O)O)C(=O)O)cc3)c2c(=O)[nH]1 [Pemetrexed] (partner 0.2 µM) = 0.713
• CCCCCCCCCCCC1=C(O)C(=O)C=C(O)C1=O [Embelin] + Cc1nc(Nc2ncc(C(=O)Nc3c(C)cccc3Cl)s2)cc(N2CCN(CCO)CC2)n1 [Dasatinib] (partner 0.075 µM) = 0.387
• CCCCCCCCCCCC1=C(O)C(=O)C=C(O)C1=O [Embelin] + C[C@@H](Oc1cc(-c2cnn(C3CCNCC3)c2)cnc1N)c1c(Cl)ccc(F)c1Cl [Crizotinib] (partner 1 µM) = 0.899

Query: Look up relative viability for this compound: CCCCCCCCCCCC1=C(O)C(=O)C=C(O)C1=O [Embelin] + COc1cccc2cc(-c3nc([C@H]4CC[C@H](C(=O)O)CC4)n4ncnc(N)c34)[nH]c12 [OSI-027] (partner 0.5 µM)
Response: 0.758
